- run_description: In vitro cytotoxicity in SN 12 PM6 cell line
- Type: functional, cell-based
- measurement_parameters: Homo sapiens
quantity_name: IC50 (µg/mL)
Numbers only, in µg/mL.

[
  {
    "smiles_entry": "CC(=O)Oc1cccc2c(/N=N/c3ccc([N+](=O)[O-])cc3[N+](=O)[O-])c3cccc(OC(C)=O)c3c(O)c12",
    "unit": "µg/mL",
    "IC50": 0.021
  },
  {
    "smiles_entry": "COc1ccc2c(=NNc3ccc([N+](=O)[O-])cc3[N+](=O)[O-])c3ccc(OC)cc3oc2c1",
    "unit": "µg/mL",
    "IC50": 0.62
  },
  {
    "smiles_entry": "O=[N+]([O-])c1ccc(NN=C(c2ccc(O)cc2)c2ccc(O)cc2)c([N+](=O)[O-])c1",
    "unit": "µg/mL",
    "IC50": 4
  }
]

# evaluate next
(Q) Kindly indicate its recorded IC50. Item: O=[N+]([O-])c1ccc(/N=N/c2c3cccc(O)c3c(O)c3c(O)cccc23)c([N+](=O)[O-])c1
(A) 0.03
